These data points were gathered from ChEMBL document CHEMBL3727356.

Overview of reported AC50 across a group of compounds:
# TARGET_UNDER_TEST: Pyruvate kinase PKLR (Homo sapiens, UniProt P30613, R510Q)
# Sequence (P30613 whole entry R510Q): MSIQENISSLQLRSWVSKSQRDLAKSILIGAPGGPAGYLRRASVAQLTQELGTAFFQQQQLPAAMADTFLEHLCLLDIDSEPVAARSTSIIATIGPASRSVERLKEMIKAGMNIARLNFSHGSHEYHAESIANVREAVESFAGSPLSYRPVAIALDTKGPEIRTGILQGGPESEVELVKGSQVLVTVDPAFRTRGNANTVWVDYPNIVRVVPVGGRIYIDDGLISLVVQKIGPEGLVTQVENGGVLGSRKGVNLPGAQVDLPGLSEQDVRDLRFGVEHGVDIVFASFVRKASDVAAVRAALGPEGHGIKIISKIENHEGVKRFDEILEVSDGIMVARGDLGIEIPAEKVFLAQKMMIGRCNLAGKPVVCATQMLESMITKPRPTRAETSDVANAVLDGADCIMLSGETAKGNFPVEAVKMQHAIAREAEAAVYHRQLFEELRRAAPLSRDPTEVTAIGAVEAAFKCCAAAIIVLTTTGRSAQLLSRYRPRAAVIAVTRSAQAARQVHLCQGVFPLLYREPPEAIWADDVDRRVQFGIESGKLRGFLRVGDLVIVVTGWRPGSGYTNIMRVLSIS
# ASSAY_NAME: Activation of PKR R510Q mutant (unknown origin) incubated for 60 mins in presence of ADP, PEP and NADH by Spectraax microplate reader based assay

Past entries and their recorded results:
{"COMPOUND": "O=C(c1ccc(NS(=O)(=O)c2cccc3cc(F)cnc23)cc1)N1CCC(O)(Cc2ccccc2)CC1", "OBSERVED_PROPERTY": "AC50", "MEASURED_RESULT": "< 100 nM"}
{"COMPOUND": "CNc1nc2c(S(=O)(=O)Nc3ccc(C(=O)N4CCC(O)(CC(C)C)CC4)cc3)cc(Cl)cc2s1", "OBSERVED_PROPERTY": "AC50", "MEASURED_RESULT": "< 100 nM"}
{"COMPOUND": "CC(C)CC1(O)CCN(C(=O)c2ccc(NS(=O)(=O)c3cccc4scnc34)cc2)CC1", "OBSERVED_PROPERTY": "AC50", "MEASURED_RESULT": "< 100 nM"}
{"COMPOUND": "CC(C)CC1(CO)CCN(C(=O)c2ccc(NS(=O)(=O)c3cccc4cccnc34)cc2)CC1", "OBSERVED_PROPERTY": "AC50", "MEASURED_RESULT": "< 100 nM"}
{"COMPOUND": "O=C(c1ccc(NS(=O)(=O)c2cccc(OC(F)(F)F)c2)cc1)N1CCC(O)(Cc2ccccc2)CC1", "OBSERVED_PROPERTY": "AC50", "MEASURED_RESULT": "> 10000 nM"}

Req: Please indicate recorded AC50 of O=C(c1ccc(NS(=O)(=O)c2cccc3scnc23)cc1)N1CCC(O)(CCCC(F)F)CC1 measured with Pyruvate kinase PKLR (Homo sapiens, UniProt P30613, R510Q).
Resp: < 100 nM

Req: Please indicate recorded AC50 of O=C(c1ccc(NS(=O)(=O)c2cccc3cccnc23)cc1)N1CCC(O)(c2cccc(F)c2Cl)CC1 measured with Pyruvate kinase PKLR (Homo sapiens, UniProt P30613, R510Q).
Resp: < 100 nM

Req: Please indicate recorded AC50 of O=C(c1ccc(NS(=O)(=O)c2cccc3cccnc23)c(F)c1F)N1CCC(O)(c2ccccc2)CC1 measured with Pyruvate kinase PKLR (Homo sapiens, UniProt P30613, R510Q).
Resp: > 10000 nM

Req: Please indicate recorded AC50 of CCS(=O)(=O)CC1(O)CCN(C(=O)c2ccc(NS(=O)(=O)c3cccc4scnc34)cc2)CC1 measured with Pyruvate kinase PKLR (Homo sapiens, UniProt P30613, R510Q).
Resp: > 10000 nM

Req: Please indicate recorded AC50 of Nc1nc2cc(S(=O)(=O)Nc3ccc(C(=O)N4CCC(O)(c5ccccc5Cl)CC4)cc3)c(F)cc2s1 measured with Pyruvate kinase PKLR (Homo sapiens, UniProt P30613, R510Q).
Resp: > 10000 nM
